Target: T1, NSP2 (Rotavirus (strain  in …, UniProt A2T3N6 1-317))
T1 sequence: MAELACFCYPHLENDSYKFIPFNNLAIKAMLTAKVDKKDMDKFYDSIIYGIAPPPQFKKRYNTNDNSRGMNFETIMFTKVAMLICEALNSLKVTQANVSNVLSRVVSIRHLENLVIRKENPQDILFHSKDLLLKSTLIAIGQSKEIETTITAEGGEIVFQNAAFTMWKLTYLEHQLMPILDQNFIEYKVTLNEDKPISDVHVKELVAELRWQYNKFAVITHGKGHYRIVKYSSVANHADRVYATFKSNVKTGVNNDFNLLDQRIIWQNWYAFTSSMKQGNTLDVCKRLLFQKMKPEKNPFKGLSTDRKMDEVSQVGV
Experiment: fluorescence anisotropy; no Mg2+; one value given for all three RNAs
Conditions: protein: recombinant; chain copies: 8; label: 5' AlexaFluor488; hairpin, -8.1 kcal/mol
QUANTITY: Kd

In [3]: df
Out[3]:
                                     binder  result
0  UCUUUGCAAACAUGCAAAGA (structured_RNA) [stable 20mer hairpin]  ~20 nM
